assay method text: yeast display, Sf9 membrane polyspecificity reagent, FACS + sequencing; frameworks hold sequencing errors

- sequence entry: "QVQLVESGGGLVQAGGSLRLSCAASGSIRHNTIGWYRQAPGKESEFVASISKRGGSTYYADSVKGRFTISRDNAKNTVYLQMNSLKPEDTAVYYCNAGAVTFVGRDYWGQGTQVTVSS"
  polyreactivity (PSR sort gate): "high polyreactivity"
- sequence entry: "QVQLVESGGGLVQAGGSLSLTCAASGITFYLYAMGWDIQAPGKERELVAAISSGSRTTYADSVKGRFTISRDNEKNTVYLQMNSLKPEDTAFYYCAAAYWNWGYYYSYDYWGQGTQVTVSS"
  polyreactivity (PSR sort gate): "high polyreactivity"

###

assay method text: yeast display, Sf9 membrane polyspecificity reagent, FACS + sequencing; frameworks hold sequencing errors
parameter: polyreactivity (PSR sort gate)

Example sequences with recorded polyreactivity (PSR sort gate):
- sequence entry: "QVQLVESGGGLVQAGGSLRLSCAASGFIFVGNDMGWYRQAPGKERELVAAISSGGTTIYADSVKGRFTISRDNAKNTVYLQMNSLKPEDTAVYFCAADYDYRQGYDSVHLDYWGQGTQVTVSS"
  polyreactivity (PSR sort gate): "low polyreactivity"
- sequence entry: "QVQLVESGGGLVQAGGSLRLSCAASGIISSVYAMGWYRQAPVKERELVAAISGSGGSTYYADSVKGRFTISRDNAKNTVYLQMNSLTPEDTAVYYCAKGYQYQGNSYGYWGQGTQVTVSS"
  polyreactivity (PSR sort gate): "low polyreactivity"
- sequence entry: "QVQLVESGGGLVQAGGSLRLSCDASVSIFQPYAMGWYRQAPGKERELVAAISSSGGSTTYADSVKGRFTISRDNAKNTVYLQMKSLKPEDTAVYYCAADSADDMGYWGQGTQVTVSS"
  polyreactivity (PSR sort gate): "low polyreactivity"
- sequence entry: "QVQLVESGGGLVQAGGSLRLSCAASGSTFSAYGMGWYRQAPGKEMELVASISWNGGSTYYADSVQGRFTISGDNAKNTVYLQMNSLKPEDTAVYYCNTELVGHPDWLSWRYYYWGQGTQVTVSS"
  polyreactivity (PSR sort gate): "low polyreactivity"
- sequence entry: "QVQLVETGGGLVQAGGSLRLSCAASGGIFGRNAMGWYRQAPGKERELVASISKSGGSTYYADSVKGRFTISRDNAKNTVYLQMNSLKPEDTAVYYCAARYSYFNWDNYYWGQGTQVTVSS"
  polyreactivity (PSR sort gate): "high polyreactivity"
- sequence entry: "QVQLVESGGGLVQAGGSLRLSCAASGSTLYYNAMGWYRQAPGKERELVAAITSGGSTSYADSVKGRFTISRDNAKNTVSFQMYSLKPEDTAVYYCAAVFYRRFDNWGQGTQVTVSS"
  polyreactivity (PSR sort gate): "low polyreactivity"
- sequence entry: "QVQLVESGGGLVQAGGSLRLSCAASGITIYHNAMGWYRPAPGKERELVAAISWSGGSTYYADSVKGRFTISRDNANNTVYLQMNSLKPEDSAVYYCAAYQRVREGHDYEYWGQGTQVSVSS"
  polyreactivity (PSR sort gate): "high polyreactivity"
- sequence entry: "QVQLVESGGGLDQARGSLRLSCAASGSILRYYTMGWYRQAHGKERELVAAISYRGSSTYYADSVKGRFTISRDNAKNTVYLQMNSLKPEDTAVYYCARGGYYGYDYWGQGTQVTLSS"
  polyreactivity (PSR sort gate): "high polyreactivity"

Lookup: Consider the sequence shown here: QVQLVDSGGGLVQAGGRLRLSCAASGSTFRLYAMGWYRQAPGKERELVAAISSNGVRTYYADSVKGRFTISRDNAKNTVYLQLNSLKPEDTAVYYCAARVYPAYPRGYDYWGQGTQVTVSS What is its recorded polyreactivity (PSR sort gate)?
Found: high polyreactivity

Lookup: Consider the sequence shown here: QLQLVESGGGLDQAGGSLRLSCAASGSIFPGYAMGWYRQAPGKESELVATITWSGGSTYYADSVKGRFTISRDNAKNTVYLQMNSLKPEDTAVYYCNADSNWYYQWNYYGLYDYWGQGTQVTVSS What is its recorded polyreactivity (PSR sort gate)?
Found: low polyreactivity

Lookup: Consider the sequence shown here: QVQLVESGGGLVQAGGSLRLSCAASGVIFKAYAMGWYRPAPGKERELVAAITSSGGRTYYADSVKGRFTISRDNAKNTVYLQMNSLKPEDSAVYYCNARGVLRTSLYRYDYWGQGTQLTVSS What is its recorded polyreactivity (PSR sort gate)?
Found: high polyreactivity

Attribution: the nanobody polyreactivity screen of Harvey et al. (2022)
